The origin of these recorded values is patent US20210301026A1.

EXPERIMENTAL SYSTEM: T1, monomeric human CSF1R ectodomain protein (human, UniProt P07333 20-517)
T1 construct: also called biotinylated monomeric human CSF1R
EXPERIMENT NOTES: SPR Biacore, IgG captured, monomeric CSF1R analyte
Experimental: Affinity (KD) of purified IgGs was determined via SPR with antigen in-solution on a Biacore 3000 (GE). […] The obtained sensorgrams were analysed using the Biacore 3000 evaluation (BIAevaluation) software. The KD was calculated by simultaneous fitting of the association and dissociation phases to a 1:1 Langmuir binding model.
RECORDED METRIC: kon
Could you kindly put the unit after your number?

Give kon for each of the items listed below.
1. humanized anti-CSF1R antibody 0301 (hu0301) (antibody, human IgG4, V domains shown, also called mAb-1) VH: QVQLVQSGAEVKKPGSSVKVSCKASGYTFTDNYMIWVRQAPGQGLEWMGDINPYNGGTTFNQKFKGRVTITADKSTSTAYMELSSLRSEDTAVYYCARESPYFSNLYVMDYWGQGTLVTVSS VL: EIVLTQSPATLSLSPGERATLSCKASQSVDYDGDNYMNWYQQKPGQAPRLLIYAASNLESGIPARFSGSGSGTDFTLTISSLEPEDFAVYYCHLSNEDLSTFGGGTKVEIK
2. MH13 (antibody, human IgG4, V domains shown, Deimmunized MH5 derivative, human IgG4(S228P)/Ckappa IgG) VH: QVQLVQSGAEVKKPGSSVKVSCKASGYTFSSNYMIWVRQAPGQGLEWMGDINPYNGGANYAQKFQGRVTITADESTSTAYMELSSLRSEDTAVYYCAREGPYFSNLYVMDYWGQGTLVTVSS VL: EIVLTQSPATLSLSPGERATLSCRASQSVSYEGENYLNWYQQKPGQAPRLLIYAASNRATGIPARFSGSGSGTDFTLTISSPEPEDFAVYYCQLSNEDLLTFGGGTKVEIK

1: 2.3e+06 M⁻¹ s⁻¹; 2: 1.69e+06 M⁻¹ s⁻¹
